biological target: panel of 255 wild-type kinases (Homo sapiens, UniProt P49137); test: Kinase panel profiling at 1 µmol/L (MSA or IMAP), percentage inhibition; type: biochemical; details: kinase MAPKAPK2; 1 µmol/L single concentration; read-out: %-inhibition at 1 µmol/L, MAPKAPK2
Sequence (P49137 whole entry): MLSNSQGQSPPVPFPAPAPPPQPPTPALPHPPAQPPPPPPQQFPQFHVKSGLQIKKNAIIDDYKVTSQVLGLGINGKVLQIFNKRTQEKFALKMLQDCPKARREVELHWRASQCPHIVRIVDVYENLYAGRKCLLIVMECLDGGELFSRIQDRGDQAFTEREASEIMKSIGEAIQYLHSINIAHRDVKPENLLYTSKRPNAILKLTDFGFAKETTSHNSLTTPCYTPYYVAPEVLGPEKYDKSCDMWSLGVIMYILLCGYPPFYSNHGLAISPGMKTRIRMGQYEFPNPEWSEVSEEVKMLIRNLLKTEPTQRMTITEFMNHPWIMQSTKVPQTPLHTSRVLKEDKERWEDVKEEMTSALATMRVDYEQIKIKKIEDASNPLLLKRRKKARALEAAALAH
attribute.measured: inhibition at 1 µM

Study these solved cases before continuing.
{"item.smiles": "COC(=O)N[C@@H](C)CNc1nccc(-c2cn(C(C)C)nc2-c2cc(Cl)cc(NS(C)(=O)=O)c2F)n1", "inhibition at 1 µM": "-11%"}
{"item.smiles": "Cn1cnc2c(F)c(Nc3ccc(Br)cc3F)c(C(=O)NOCCO)cc21", "inhibition at 1 µM": "-13%"}
{"item.smiles": "CN1CCN(c2ccc(C(=O)Nc3n[nH]c4ccc(Cc5cc(F)cc(F)c5)cc34)c(NC3CCOCC3)c2)CC1", "inhibition at 1 µM": "-14%"}
{"item.smiles": "COc1cc2ncnc(Nc3ccc(F)c(Cl)c3)c2cc1NC(=O)/C=C/CN1CCCCC1", "inhibition at 1 µM": "-40%"}
{"item.smiles": "FC(F)(F)c1ccc(CNc2ccc(Cc3c[nH]c4ncc(Cl)cc34)cn2)cn1", "inhibition at 1 µM": "-32%"}
{"item.smiles": "Cn1cc(-c2cc3c(N4CCN(c5ncc([C@@](C)(N)c6ccc(F)cc6)cn5)CC4)ncnn3c2)cn1", "inhibition at 1 µM": "-0.02%"}

For every item below, please supply its inhibition at 1 µM.
1. CCN1CCN(c2ccc(Nc3cc(N(C)C(=O)Nc4c(Cl)c(OC)cc(OC)c4Cl)ncn3)cc2)CC1
2. CCn1c(=O)c(-c2cc(NC(=O)Nc3ccccc3)c(F)cc2Br)cc2cnc(NC)cc21
3. O=C(Nc1cnn2ccc(N3CCC[C@@H]3c3cc(F)ccc3F)nc12)N1CC[C@H](O)C1
4. Cc1nc(NC(=O)N2CCC[C@H]2C(N)=O)sc1-c1ccnc(C(C)(C)C(F)(F)F)c1

Result:
1: -32%; 2: -24%; 3: -13%; 4: -16%

Request: Fill in: inhibition at 1 µM of COc1ccc(CN2C3CC2CN(c2ccc(-c4cc(OCC(C)(C)O)cn5ncc(C#N)c45)cn2)C3)cn1 is ___
Result: -5.47%

* * *

Give measured IC50 for each item. Keep answers brief.
test system: 134 cancer cell lines; assay: Cell viability assay (ATPlite, 72 hours), IC50 on cancer cell line panel; settings: Homo sapiens, SK-N-FI, read-out: IC50 in cell proliferation assay
Give bare numbers, in nM.

{"item.smiles": "C[C@H]1Oc2cc(cnc2N)-c2c(nn(C)c2C#N)CN(C)C(=O)c2ccc(F)cc21", "unit.info": "nM", "assay.value": 21500}
{"item.smiles": "C[C@@H](Oc1cc(-c2cnn(C3CCNCC3)c2)cnc1N)c1c(Cl)ccc(F)c1Cl", "unit.info": "nM", "assay.value": 2170}
{"item.smiles": "COc1cc(N2CCC(N3CCN(C)CC3)CC2)ccc1Nc1ncc(Cl)c(Nc2ccccc2P(C)(C)=O)n1", "unit.info": "nM", "assay.value": 1090}

Let us examine a further case.
Request: Reported IC50 for CCn1c(=O)c(-c2cc(NC(=O)Nc3ccccc3)c(F)cc2Br)cc2cnc(NC)cc21 : what is it?
Result: 2920
